biological target: T1, isolated N-terminal extracellular domain of the GLP-1 receptor (nGLP-1R) (UniProt P43220 24-145, limits assumed, biotinylated with BNHS, immobilized on streptavidin-coated SPA beads); experiment: SPA competition: displacement of 125I-Exendin-4(9-39) from biotinylated nGLP-1R on streptavidin SPA beads
T1 construct: extracellular domain; also called N-terminal GLP-1 receptor
pIC50: −log10 of the molar value. Where no end group is shown, it is not given here.
quantity.kind: pIC50

>  <binder>
HAEGTFTSDVSSYLEGQAAKEFIAWLV (ends and bridges not checked, also called truncated natural GLP-1; truncated natural GLP-1(7-3)) peptide) [truncated natural, human GLP-1(7-33)]

>  <quantity.kind>
pIC50

>  <result>
6.05

$$$$
